Please provide measured max response for the entries that follow.
System: CRL-7250
ASSAY_PROCEDURE: Cytotoxic Profiling of Annotated Libraries Using Quantitative High-Throughput Screening (AID 1296008); note: % is set by controls: 0 for no effect and ±100 for the full control effect
CONDITION_LABEL: Five cell lines viability, CellTiter-Glo ATP luminescence, 48-72 h; stronger effect = lower value
Results filed as inconclusive are left out.
Provide the reading as a plain figure in %.

Q) Form field: reported max response of `CC[C@H](CC[C@@H](C)[C@H]1CC[C@H]2[C@@H]3CC=C4C[C@@H](O)CC[C@]4(C)[C@@H]3CC[C@]12C)C(C)C`
A) -0.624

Q) Form field: reported max response of `CC(C=CC=C(C)C=CC1=C(C)CCCC1(C)C)=CC=CC=C(C)C=CC=C(C)C=CC1=C(C)CCCC1(C)C`
A) -6.98

Q) Form field: reported max response of OCC(O)C(O)C(O)CO (stereo not drawn)
A) -10.5

Q) Form field: reported max response of `Nc1nc2c(c(=O)[nH]1)N(C=O)[C@H](CNc1ccc(C(=O)N[C@@H](CCC(=O)O)C(=O)O)cc1)CN2`
A) -8.32

Q) Form field: reported max response of `CCN1CCN(C(=O)N[C@H](C(=O)N[C@@H]2C(=O)N3C(C(=O)O)=C(CSc4nnnn4C)CS[C@@H]23)c2ccc(O)cc2)C(=O)C1=O`
A) 2.05

Q) Form field: reported max response of `Nc1ccn(C[C@@H](CO)OCP(=O)(O)O)c(=O)n1`
A) 3.98

Q) Form field: reported max response of `C[C@H](NC(=O)[C@@H](O)c1cc(F)cc(F)c1)C(=O)N[C@@H]1C(=O)N(C)c2ccccc2-c2ccccc21`
A) -10.4

Q) Form field: reported max response of `COc1cc(C)c(C=CC(C)=CC=CC(C)=CC(=O)O)c(C)c1C`
A) -4.27

---

Please provide measured growth, % of control for the entries that follow.
ASSAY_PROCEDURE: qHTS profiling of the MIPE4 collection as inhibitors of Plasmodium falciparum (HB3) proliferation (AID 743347);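 note: plate controls were DMSO vehicle wells for no effect and artemisinin wells for full effect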
CONDITION_LABEL: P. falciparum HB3 in erythrocytes, SYBR Green DNA, 72 h; at 28.5 µM (top of the series) unless noted

Q) Form field: reported growth, % of control of `O=C(O)C[C@H](O)C[C@H](O)C=Cc1c(C2CC2)nc2ccccc2c1-c1ccc(F)cc1`
A) 86.6%

Q) Form field: reported growth, % of control of C=CC(=O)Nc1cccc(Nc2nc(NC3CCC(N(C)C)CC3)nc3c2ncn3C(C)C)c1 (stereo not drawn)
A) 4.69%

Q) Form field: reported growth, % of control of `N#Cc1c(NC(=O)c2cccc3ccccc23)sc2c1CCCC2`
A) 69.7%

Q) Form field: reported growth, % of control of `Nc1ccc(C(=O)Nc2cccc(-c3nc(N4CCOCC4)c4oc5ncccc5c4n3)c2)cn1`
A) 2.51%

Q) Form field: reported growth, % of control of `CC[C@]12C=CCN3CC[C@@]4(c5cc([C@@]6(C(=O)OC)C[C@H]7C[C@@H](C(C)(F)F)CN(Cc8c6[nH]c6ccccc86)C7)c(OC)cc5N(C)[C@H]4[C@@](O)(C(=O)OC)[C@H]1OC(C)=O)[C@@H]32`
A) 16.3%

Q) Form field: reported growth, % of control of `Cn1c(Nc2ccc(C(F)(F)F)cc2)nc2cc(Oc3ccnc(-c4ncc(C(F)(F)F)[nH]4)c3)ccc21`
A) 8.58%

Q) Form field: reported growth, % of control of CC(C(C)N1CC(=O)NC(=O)C1)N1CC(=O)NC(=O)C1 (stereo not drawn)
A) 98.2%

Q) Form field: reported growth, % of control of `C=CC1=C(C(=O)O)N2C(=O)[C@@H](NC(=O)C(=NO)c3csc(N)n3)[C@H]2SC1`
A) 68.4%
